FYI, the data here is from patent US9427428B2.

For each entry below, report its pEC50 value.
- Test system: HCV genotype 1b replicon NS5A Y93H
- Assay Explanation: Transient HCV 1b replicon, NS5A mutant Y93H
- Format: cell-based
- Experimental Parameters: Hepatitis C virus, read-out: EC50 Y93H
pEC50 is defined as minus the log10 of a concentration measured in mol/L.

Need pEC50, item COC(=O)N[C@H](C(=O)N1CCC[C@H]1c1ncc(-c2ccc3cc(-c4ccc5nc([C@@H]6CCCN6C(=O)[C@@H](NC(=O)OC)[C@@H](C)OC)[nH]c5c4)ccc3c2)[nH]1)C(C)C [Compound 9]
10.38

Need pEC50, item CC[C@@H](C)[C@H](NC(=O)OC)C(=O)N1CCC[C@H]1c1ncc(-c2ccc3cc(-c4ccc5nc([C@@H]6CCCN6C(=O)[C@@H](NC(=O)OC)[C@H](C)CC)[nH]c5c4)ccc3c2)[nH]1 [Compound 19]
8.29

Need pEC50, item COC(=O)N[C@H](C(=O)N1CCC[C@H]1c1nc2ccc(-c3ccc4cc(-c5cnc([C@@H]6CCCN6C(=O)[C@@H](NC(=O)OC)[C@@H](C)OC)[nH]5)ccc4c3)cc2[nH]1)C(C)C [Compound 11]
9.78

Need pEC50, item COCC[C@H](NC(=O)OC)C(=O)N1CCC[C@H]1c1ncc(-c2ccc3cc(-c4ccc5nc([C@@H]6CCCN6C(=O)[C@H](CCOC)NC(=O)OC)[nH]c5c4)ccc3c2)[nH]1 [Compound 10]
8.99

Need pEC50, item CC[C@H](C)[C@H](NC(=O)OC)C(=O)N1CCC[C@H]1c1nc2ccc(-c3ccc4cc(-c5cnc([C@@H]6CCCN6C(=O)[C@@H](NC(=O)OC)C(C)C)[nH]5)ccc4c3)cc2[nH]1 [Compound 13]
9.67
